Collected IC50 values appear next to each entry.
- tgt: KDR (Homo sapiens (Human), UniProt P35968)
- Sequence (P35968 20-1356): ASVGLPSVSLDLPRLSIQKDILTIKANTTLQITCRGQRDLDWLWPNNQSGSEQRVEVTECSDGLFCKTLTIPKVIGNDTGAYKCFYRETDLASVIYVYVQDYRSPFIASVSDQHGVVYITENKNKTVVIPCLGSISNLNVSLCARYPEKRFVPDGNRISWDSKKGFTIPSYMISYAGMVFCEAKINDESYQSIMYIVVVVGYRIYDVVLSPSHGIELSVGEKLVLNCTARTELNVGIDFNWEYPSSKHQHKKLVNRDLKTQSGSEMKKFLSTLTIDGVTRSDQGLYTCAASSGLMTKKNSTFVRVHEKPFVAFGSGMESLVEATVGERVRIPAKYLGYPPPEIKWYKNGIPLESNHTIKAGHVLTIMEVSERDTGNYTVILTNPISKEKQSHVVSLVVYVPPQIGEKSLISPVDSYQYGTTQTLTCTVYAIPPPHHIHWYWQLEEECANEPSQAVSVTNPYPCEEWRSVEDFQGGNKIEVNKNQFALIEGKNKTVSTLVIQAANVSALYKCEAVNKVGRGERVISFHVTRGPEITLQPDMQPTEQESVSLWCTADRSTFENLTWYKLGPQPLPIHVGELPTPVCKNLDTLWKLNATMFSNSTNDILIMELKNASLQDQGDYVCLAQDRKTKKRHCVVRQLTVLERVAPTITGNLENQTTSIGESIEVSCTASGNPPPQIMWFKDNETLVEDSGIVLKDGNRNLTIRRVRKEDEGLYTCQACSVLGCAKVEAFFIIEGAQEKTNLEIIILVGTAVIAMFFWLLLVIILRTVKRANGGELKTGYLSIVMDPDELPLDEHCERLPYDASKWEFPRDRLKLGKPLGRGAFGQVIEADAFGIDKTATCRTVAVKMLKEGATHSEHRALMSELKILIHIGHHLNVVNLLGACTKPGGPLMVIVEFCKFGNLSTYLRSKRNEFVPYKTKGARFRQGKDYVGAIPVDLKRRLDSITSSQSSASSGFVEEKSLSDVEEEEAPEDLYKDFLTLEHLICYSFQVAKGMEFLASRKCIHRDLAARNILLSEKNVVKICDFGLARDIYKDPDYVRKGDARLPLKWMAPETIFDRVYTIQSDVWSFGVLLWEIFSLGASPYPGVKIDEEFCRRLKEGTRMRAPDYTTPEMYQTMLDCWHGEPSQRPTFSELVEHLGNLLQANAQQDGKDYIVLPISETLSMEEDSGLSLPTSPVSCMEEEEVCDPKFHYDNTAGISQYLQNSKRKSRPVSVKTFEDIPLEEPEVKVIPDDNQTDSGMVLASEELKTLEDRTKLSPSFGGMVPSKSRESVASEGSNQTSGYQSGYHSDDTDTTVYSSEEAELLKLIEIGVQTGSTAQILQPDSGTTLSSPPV
- test description: KDR autophosphorylation ELISA in HUVEC cells
- condition label: cellular, VEGF165 stimulated

Past entries and their recorded results:
>  <compound>
CNC(=O)c1cc2c(Oc3ccc(NC(=O)C4(C(=O)N(C)c5ccc(F)cc5)CC4)cc3F)ccnc2cc1OC [Compound 262]

>  <IC50>
> 300 nM

$$$$
>  <compound>
CNC(=O)c1cc2nccc(Oc3ccc(NC(=O)C4(C(=O)Nc5ccc(F)cc5)CC4)cc3)c2cc1OC [Compound 153]

>  <IC50>
10 to 100 nM

$$$$
>  <compound>
COC(=O)c1cc2c(Oc3ccc(NC(=O)C4(C(=O)Nc5ccc(F)cc5)CC4)cc3Cl)ccnc2cc1OC [Compound 128]

>  <IC50>
≤ 10 nM

$$$$

Prompt: KDR (Homo sapiens (Human), UniProt P35968) / IC50 / COc1cc2nccc(Oc3ccc(NC(=O)C4(C(=O)Nc5ccc(F)cc5)CC4)cc3)c2cc1C(=O)NC1COC1 [Compound 13] : value?
Completion: ≤ 10 nM

Prompt: Also, NS(=O)(=O)c1ccc2nccc(Oc3ccc(NC(=O)C4(C(=O)Nc5ccc(F)cc5)CC4)cc3)c2c1 [Compound 209] please.
Completion: 10 to 100 nM

Prompt: Also, CNC(=O)c1cc2c(Oc3ccc(NC(=O)C4(C(=O)Nc5ccc(F)cc5)CC4)cc3Cl)ccnc2cc1OC [Compound 134] please.
Completion: ≤ 10 nM

Prompt: Also, CNc1cc2nccc(Oc3ccc(NC(=O)C4(C(=O)Nc5ccc(F)cc5)CC4)cc3)c2cc1C(=O)OC [Compound 84] please.
Completion: ≤ 10 nM

Prompt: Also, COc1cc2nccc(Oc3ccc(NC(=O)C4(C(=O)Nc5ccc(F)cc5)CC4)cc3)c2cc1P(C)(C)=O [Compound 51] please.
Completion: 100 to 300 nM

Prompt: Also, CO/N=C(/C)c1cc2c(Oc3ccc(NC(=O)C4(C(=O)Nc5ccc(F)cc5)CC4)cc3)ccnc2cc1OC [Compound 36] please.
Completion: > 300 nM
